Origin of values: ChEMBL document CHEMBL2029228

# test: Clearance at steady state in CD1 mouse at 5 mg/kg, iv
# Format: ADME, organism-based
# Set-up: dose 5 mg/kg, route intravenous
# details: in vivo, read-out: CLss
The label depends only on clearance: class 1 if it is at least 10 mL/min/kg, class 0 if it is smaller.

smiles.text	class.assignment
CC[C@H]1OC(=O)[C@H](C)[C@@H](O[C@H]2C[C@@](C)(OC)[C@@H](O)[C@H](C)O2)[C@H](C)[C@@H](O[C@@H]2O[C@H](C)C[C@H](N(C)C)[C@H]2O)[C@](C)(O)C[C@@H](C)CN(CCCNc2ccnc3ccccc23)[C@H](C)[C@@H](O)[C@]1(C)O	class 0

Quick check: does CC[C@H]1OC(=O)[C@H](C)[C@@H](O[C@H]2C[C@@](C)(OC)[C@@H](O)[C@H](C)O2)[C@H](C)[C@@H](O[C@@H]2O[C@H](C)C[C@H](N(C)C)[C@H]2O)[C@](C)(O)C[C@@H](C)CN(CCCNC(=O)CCc2ccccc2)[C@H](C)[C@@H](O)[C@]1(C)O have clearance greater than or equal to 10 mL/min/kg?
class 1

Quick check: does CC[C@H]1OC(=O)[C@H](C)[C@@H](O[C@H]2C[C@@](C)(OC)[C@@H](O)[C@H](C)O2)[C@H](C)[C@@H](O[C@@H]2O[C@H](C)C[C@H](N(C)C)[C@H]2O)[C@](C)(O)C[C@@H](C)CN(CCCNc2ccnc3cc(Cl)ccc23)[C@H](C)[C@@H](O)[C@]1(C)O have clearance greater than or equal to 10 mL/min/kg?
class 0

Quick check: does CC[C@H]1OC(=O)[C@H](C)[C@@H](O[C@H]2C[C@@](C)(OC)[C@@H](O)[C@H](C)O2)[C@H](C)[C@@H](O[C@@H]2O[C@H](C)C[C@H](N(C)C)[C@H]2O)[C@](C)(O)C[C@@H](C)CN(CCC(=O)N[C@H](C)c2cccc3ccccc23)[C@H](C)[C@@H](O)[C@]1(C)O have clearance greater than or equal to 10 mL/min/kg?
class 1
